src = patent US11319298B2

- target_entity: human M4 muscarinic acetylcholine receptor (Homo sapiens, UniProt P08173)
- Sequence (P08173 whole entry): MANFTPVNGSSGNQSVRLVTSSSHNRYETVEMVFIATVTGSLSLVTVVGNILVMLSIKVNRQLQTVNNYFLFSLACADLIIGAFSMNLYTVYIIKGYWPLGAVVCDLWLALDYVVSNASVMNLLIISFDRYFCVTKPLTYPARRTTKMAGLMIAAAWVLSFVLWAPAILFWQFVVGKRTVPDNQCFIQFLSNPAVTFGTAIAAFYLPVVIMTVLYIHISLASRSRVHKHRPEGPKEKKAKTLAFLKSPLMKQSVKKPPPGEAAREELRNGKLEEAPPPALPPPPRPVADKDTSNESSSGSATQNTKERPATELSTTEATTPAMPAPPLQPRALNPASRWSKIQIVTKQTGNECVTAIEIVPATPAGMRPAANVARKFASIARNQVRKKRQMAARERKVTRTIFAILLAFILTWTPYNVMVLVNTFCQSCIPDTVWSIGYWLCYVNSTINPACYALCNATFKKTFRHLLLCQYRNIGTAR
- assay_remarks: human FLIPR-based M4 PAM assay, CHO-K1 cells stably transfected with human M4 receptor and chimeric G-protein Gαqi5
- study_conditions: inflection point (IP) of dose response curve; acetylcholine added at 20% of maximum response; CHO-K1 human M4/Gαqi5, FLIPR Tetra
Catalogue of pEC50 values
Please note pEC50 is a logarithmic value: minus log10 of concentration in mol/L. Answer with that number alone.

The cases that follow already have their pEC50 on record.
COc1ccc(OC2CCN(c3nc(C(N)=O)nc(Br)c3C)CC2)cn1 [Example 225A]; 7.21
Cc1cc(C(=O)NCc2ccncc2)c(N)nc1N1CCC(Oc2cccc(C#N)c2)CC1; 5.37
COc1ccc(OC2CCN(c3nnc(C(=O)OCc4ccncc4)cc3C)CC2)cn1 [Example 106A]; 7.07
Cc1ncc(C)c(N2CC[C@H](Oc3cccc(C#N)c3)[C@H](F)C2)n1; 6.53

Please turn your attention to the following entry.
Which pEC50 is listed for Cc1c(Cl)nc(CO)nc1N1CCC(Oc2ccc3ncnn3c2)CC1 ?
6.27

----------
Overview of recorded log10 of EC50 for various compounds
- target_entity: human M4 muscarinic acetylcholine receptor (Homo sapiens)
- assay_remarks: human FLIPR-based M4 PAM assay, CHO-K1 cells stably transfected with human M4 receptor and chimeric G-protein Gαqi5
- study_conditions: inflection point (IP) of dose response curve; acetylcholine added at 20% of maximum response; CHO-K1 human M4/Gαqi5, FLIPR Tetra
Kindly note that the scale is log10 and the underlying EC50 is in nM.

COc1ccc(OC2CCN(c3nnc(C(=O)N[C@@H]4CCc5ccncc5C4)cc3C)CC2)cn1 (single isomer, unassigned) [Example 107A]; 2.26
COC(=O)c1cnc(N2CCC(Oc3ccc(OC)nc3)CC2)c(C)c1; 2.35
Cc1cc(C(=O)NCc2ccncc2)nnc1N1CCC(Oc2ccc3[nH]ccc3c2)CC1; 1.54

Identify the measured log10 of EC50 of COc1ccc(OC2CCN(c3nc(C(=O)NCc4cnsc4)nc(Cl)c3C)CC2)cn1 for human M4 muscarinic acetylcholine receptor (Homo sapiens).
2.51

// lookup log10 of EC50 | system=human M4 muscarinic acetylcholine receptor (Homo sapiens) | key= COc1ccc(OC2CCN(c3nc(C(=O)NC(C)(C)c4ccncc4)nc(Cl)c3C)CC2)cn1
3.16

Reported log10 of EC50 for human M4 muscarinic acetylcholine receptor (Homo sapiens), given COc1ccc(OC2CCN(c3ncnc(CC(C)C)c3C)CC2)cn1 ?
3.40

I'm curious: which log10 of EC50 was measured for COc1ccc(OC2CCN(c3nc(C(=O)NC4CCc5ncccc5C4)nc(Cl)c3C)CC2)cn1 (centres unmarked) tested on human M4 muscarinic acetylcholine receptor (Homo sapiens)?
3.02

Lab note: need log10 of EC50 for COc1ccc(OC2CCN(c3nnc(C(=O)NCc4ccncc4)cc3C)CC2)cn1 [Example 109] on human M4 muscarinic acetylcholine receptor (Homo sapiens), anyone have it?
1.53

----------
- target_entity: human M4 muscarinic acetylcholine receptor (Homo sapiens)
- assay_remarks: human FLIPR-based M4 PAM assay, CHO-K1 cells stably transfected with human M4 receptor and chimeric G-protein Gαqi5
- study_conditions: inflection point (IP) of dose response curve; acetylcholine added at 20% of maximum response; CHO-K1 human M4/Gαqi5, FLIPR Tetra
measurement_label: EC50 (nM)
// units = nM; emit number, no label

Illustrative cases are given below, each with its answer.
COc1ccc(OC2CCN(c3nc(C(=O)NNC(C)C)nc(Cl)c3C)CC2)cn1 [Example 209]; 533
Cc1c(Cl)nc(C2CC2)nc1N1CCC(Oc2cccnc2)CC1 [Example 95B]; 435

Would you kindly share the measured EC50 for COC1CCN(c2nnc(C(=O)NCc3ccncc3)cc2C)CC1 [Example 7] ?
1240

Entry CSc1nc(Cl)c(C)c(N2CCC(Oc3cccnc3)CC2)n1 [Example 15] has what EC50?
745

Any idea what EC50 was measured for Cc1nc2cc(OC3CCN(c4nc(CO)nc(Cl)c4C)CC3)ccc2s1 [Example 44] ?
446
